Where these numbers come from: patent US20240383908A1

target: SHP2 protein (Homo sapiens); experiment: Degradation activity on SHP2 protein in NCI-H358 cells (Western blot, DC50); type: cell-based; set-up: endogenous in cells; conditions: read-out: Degradation activity for differenct cell lines NCI-H358 (DC50)
Sequence (Q06124 whole entry): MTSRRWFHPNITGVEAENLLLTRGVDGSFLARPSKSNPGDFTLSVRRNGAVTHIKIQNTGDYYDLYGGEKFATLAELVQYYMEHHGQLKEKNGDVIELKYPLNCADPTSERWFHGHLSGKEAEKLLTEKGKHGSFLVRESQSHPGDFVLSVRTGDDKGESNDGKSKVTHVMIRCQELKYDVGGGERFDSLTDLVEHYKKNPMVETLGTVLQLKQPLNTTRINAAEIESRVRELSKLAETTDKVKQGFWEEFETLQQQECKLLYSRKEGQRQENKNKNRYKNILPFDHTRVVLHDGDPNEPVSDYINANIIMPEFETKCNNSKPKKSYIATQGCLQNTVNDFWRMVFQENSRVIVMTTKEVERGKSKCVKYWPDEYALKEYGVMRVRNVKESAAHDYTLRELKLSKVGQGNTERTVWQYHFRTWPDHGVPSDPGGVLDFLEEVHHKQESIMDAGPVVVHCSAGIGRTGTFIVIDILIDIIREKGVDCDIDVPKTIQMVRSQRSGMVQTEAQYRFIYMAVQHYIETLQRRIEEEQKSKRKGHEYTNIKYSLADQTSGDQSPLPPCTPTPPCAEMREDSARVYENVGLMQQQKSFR
Structures can show the parent of a compound that is named as a salt.
readout_kind: DC50

Below are worked cases with known answers.
compound | readout_kind | result
CC1(N)CCN(c2cnc(Sc3cccc(NC(=O)c4ccc(N5CCC(N6CC=C(c7ccc(C(=O)NCc8ccc9c(c8)CN(C8CCC(=O)NC8=O)C9=O)nc7)CC6)C(F)C5)nc4)c3)cn2)CC1 (stereo not drawn) [Compound 409] | DC50 | < 0.1 µM
CC1(N)CCN(c2cnc(Sc3cccc(NC(=O)c4ccc5c(c4)CC(N4CCN(c6ccc(C(=O)NCc7ccc8c(c7)CN(C7CCC(=O)NC7=O)C8=O)nn6)CC4)C5)c3)cn2)CC1 (stereo not drawn) [Compound 344, hydrochloride] | DC50 | > 1 µM

Now look at this one.
Known value: SHP2 protein (Homo sapiens) DC50 of the compound CC1(N)CCN(c2cnc(Sc3cccc(NC(=O)c4ccc(N5CCC(N6CC=C(c7ccc(C(=O)NCc8ccc9c(c8)CN(C8CCC(=O)NC8=O)C9=O)nc7)C6)CC5)c(F)c4)c3)cn2)CC1 (stereo not drawn) [Compound 410] equals < 0.1 µM

----------
molecular target: SHP2 protein (Homo sapiens); test: Degradation activity on SHP2 protein in MV-411 cells (Western blot, DC50); type: cell-based; parameters: endogenous in cells; details: MV411 cells, 24 hours, read-out: Degradation activity for differenct cell lines MV411 (DC50)
readout_kind: DC50

compound | experimental_system | DC50
CC1(N)CCN(c2cnc(Sc3cccc(NC(=O)C4CN(CCCCCCCCCCC(=O)NCc5ccc6c(c5)CN(C5CCC(=O)NC5=O)C6=O)C4)c3)cn2)CC1 (stereo not drawn) | SHP2 protein (Homo sapiens) | > 1000 nM
CN(Cc1ccc2c(c1)CN(C1CCC(=O)NC1=O)C2=O)C(=O)c1ccc(N2CCN(CCCCCCCCC(=O)Nc3cccc(Sc4cnc(N5CCC(C)(N)CC5)cn4)c3)C(C(F)(F)F)C2)nn1 (stereo not drawn) | SHP2 protein (Homo sapiens) | < 100 nM

Now look at this one.
Summary for this compound, CC1(N)CCN(c2cnc(Sc3cccc(NC(=O)CCCCCCN4CC5(CCN(c6cnc(C(=O)NCc7ccc8c(c7)CN(C7CCC(=O)NC7=O)C8=O)cn6)C5)C4)c3)cn2)CC1 (stereo not drawn) : DC50 is < 100 nM

----------
target: SHP2 protein (Homo sapiens); test: Degradation activity on SHP2 protein in MIA Paca-2 cells (Western blot, DC50); assay type: cell-based; parameters: endogenous in cells; host or cells: MIA Paca-2 cells; settings: read-out: Degradation activity for differenct cell lines MIA Paca-2 (DC50)
Where a name gives a salt, the structure may show the parent alone.
Below, each entry is listed alongside its reported DC50.

Below are worked cases with known answers.
molecule | DC50
CC1(N)CCN(c2cnc(Sc3cccc(NC(=O)c4ccc(N5CCC(N6CC=C(c7ncc(C(=O)NCc8ccc9c(c8)CN(C8CCC(=O)NC8=O)C9=O)o7)CC6)CC5)c(F)c4)c3)cn2)CC1 (stereo not shown) | > 1000 nM
CC1(N)CCN(c2cnc(Sc3cccc(NC(=O)CCCCCC=C4CC5(CCN(c6ccc(C(=O)NCc7ccc8c(c7)CN(C7CCC(=O)NC7=O)C8=O)nn6)CC5)C4)c3)cn2)CC1 (stereo not shown) | > 1000 nM
CC1(N)CCN(c2cnc(Sc3cccc(NC(=O)c4ccc(-c5ccc(N6CCN(c7ccc(C(=O)NCc8ccc9c(c8)CN(C8CCC(=O)NC8=O)C9=O)nc7)CC6)cc5)cc4)c3)cn2)CC1 (stereo not shown) | < 100 nM

Known value: SHP2 protein (Homo sapiens) DC50 of the molecule CC1(N)CCN(c2cnc(Sc3cccc(NC(=O)CCCCCCCCN4CCN(c5ccc(C(=O)NCc6ccc7c(c6)CN(C6CCC(=O)NC6=O)C7=O)nn5)C[C@@H]4CO)c3)cn2)CC1 (stereo partly shown) equals < 100 nM

Known value: SHP2 protein (Homo sapiens) DC50 of the molecule CC1(N)CCN(c2cnc(Sc3cccc(NC(=O)c4ccc5c(c4)CC(N4CCN(c6ccc(C(=O)NCc7ccc8c(c7)CN(C7CCC(=O)NC7=O)C8=O)nn6)CC4)C5)c3)cn2)CC1 (stereo not shown) [Compound 344, hydrochloride] equals < 100 nM

Known value: SHP2 protein (Homo sapiens) DC50 of the molecule C[C@@H]1OCC2(CCN(c3cnc(Sc4cccc(NC(=O)c5ccc(N6CCC(N7CC=C(c8ccc(C(=O)NCc9ccc%10c(c9)CN(C9CCC(=O)NC9=O)C%10=O)cc8Cl)CC7)CC6)c(F)c5)c4)cn3)CC2)[C@@H]1N (stereo partly shown) equals < 100 nM

Known value: SHP2 protein (Homo sapiens) DC50 of the molecule CC1(N)CCN(c2cnc(Sc3cccc(NC(=O)COc4ccc(N5CCN(c6ccc(C(=O)NCc7ccc8c(c7)CN(C7CCC(=O)NC7=O)C8=O)nn6)CC5)cc4)c3)cn2)CC1 (stereo not shown) equals < 100 nM

Known value: SHP2 protein (Homo sapiens) DC50 of the molecule CC1(N)CCN(c2cnc(Sc3cccc(NC(=O)c4ccc(N5CCC(N6CCN(c7ccc(C(=O)NCc8ccc9c(c8)CN(C8CCC(=O)NC8=O)C9=O)nn7)CC6)CC5)nn4)c3)cn2)CC1 (stereo not shown) equals 100 to 1000 nM

Known value: SHP2 protein (Homo sapiens) DC50 of the molecule CC1(N)CCN(c2cnc(Sc3cccc(NC(=O)CCCCCCN4CC5(CCN(c6ncc(C(=O)NCc7ccc8c(c7)CN(C7CCC(=O)NC7=O)C8=O)cc6Cl)C5)C4)c3)cn2)CC1 (stereo not shown) equals < 100 nM

Known value: SHP2 protein (Homo sapiens) DC50 of the molecule CC1(N)CCN(c2cnc(Sc3cccc(NC(=O)c4ccc(N5CCC(N6CC=C(c7cnc(C(=O)NCc8ccc9c(c8)CN(C8CCC(=O)NC8=O)C9=O)c(F)c7)CC6)CC5)nc4)c3)cn2)CC1 (stereo not shown) equals 100 to 1000 nM

Known value: SHP2 protein (Homo sapiens) DC50 of the molecule CC1(N)CCN(c2cnc(Sc3cccc(NC(=O)c4ccc(N5CCC(N6CC=C(c7ccc(C(=O)NCc8ccc9c(c8)CN(C8CCC(=O)NC8=O)C9=O)cc7)CC6)CC5)c(F)c4)c3)cn2)CC1 (stereo not shown) equals 100 to 1000 nM

Known value: SHP2 protein (Homo sapiens) DC50 of the molecule Cc1ncsc1-c1ccc([C@H](C)NC(=O)[C@@H]2C[C@@H](O)CN2C(=O)[C@@H](NC(=O)c2cnc(N3CCN(CCCCCC(=O)Nc4cccc(Sc5cnc(N6CCC(C)(N)CC6)cn5)c4)CC3)nc2)C(C)(C)C)cc1 equals < 100 nM

Known value: SHP2 protein (Homo sapiens) DC50 of the molecule CC1(N)CCN(c2cnc(Sc3cccc(NC(=O)c4ccc(N5CCC(N6CC=C(c7ccc(C(=O)NCc8ccc9c(c8)CN(C8CCC(=O)NC8=O)C9=O)nn7)CC6)CC5)c(F)c4)c3)cn2)CC1 (stereo not shown) equals < 100 nM
